List of normalized RNA/DNA level without ligand (log10) values.
B1: library; a variant is named by its letters at N, in order (parent)
chain: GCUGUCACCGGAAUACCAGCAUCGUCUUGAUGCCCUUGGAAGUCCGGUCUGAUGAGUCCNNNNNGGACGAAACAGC

Variants of: B1
method_notes: normalized RNA/DNA level without ligand (relative to sTRSVctl = 100) (log10 (% of sTRSVctl)); higher = less ribozyme self-cleavage, higher mRNA level
protocol_conditions: HEK293T, reporter: mCherry (pCS4076), ligand present: no

CUGAA    1.32
UCGAA    1.48
GACAG    1.77

Could you now consider this next variant?
// query Recorded normalized RNA/DNA level without ligand (log10) for GUUGU , please?
// result 1.84
